- Study Target: 11b-HSD1 (Mus musculus, UniProt P50172)
- Construct: endogenous in cells
- Sequence (P50172 whole entry): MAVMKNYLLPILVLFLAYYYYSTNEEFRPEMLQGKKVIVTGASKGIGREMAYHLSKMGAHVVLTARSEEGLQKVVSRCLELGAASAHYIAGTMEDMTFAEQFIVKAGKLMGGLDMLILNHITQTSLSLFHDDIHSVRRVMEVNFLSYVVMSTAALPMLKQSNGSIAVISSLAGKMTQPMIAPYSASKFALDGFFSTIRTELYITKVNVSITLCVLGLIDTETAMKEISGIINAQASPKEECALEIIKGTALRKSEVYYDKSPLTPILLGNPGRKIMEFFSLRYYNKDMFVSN
- Procedure Summary: Cellular assay, 11b-HSD1 activity in differentiated 3T3-L1 cells
- Experimental Parameters: 4 hour pre-incubation, pIC50 scored 1-3, read-out: [C2] HSD1 cellular 3T3-L1 Score
# IC50 values compiled below

Example cases with answers are listed next.
| Molecule | IC50 |
| --- | --- |
| O=C(NC1C2CC3CC(C2)CC1C3)C1CCOc2ccccc21 (stereo not drawn) | < 1 µM |
| Cc1cc(CCC(=O)N2CCOCC2)cc(C(C)(C)C(=O)N[C@H]2[C@@H]3CC4C[C@H]2C[C@](F)(C4)C3)c1 | < 1 µM |
| CC1=C(C(=O)NC2C3CC4CC(C3)CC2C4)Cc2ccccc21 (stereo not drawn) | < 1 µM |

Task: Write down IC50 measured for item O=C(NCC12CC3CC(CC(C3)C1)C2)C1(c2ccccc2)CC1
Output: < 1 µM

Task: Write down IC50 measured for item COc1ccc(C(C)(C)C(=O)NC2C3CC4CC(C3)CC2C4)cc1 (stereo not drawn)
Output: < 1 µM

Task: Write down IC50 measured for item CC(C)(C(=O)N[C@H]1[C@@H]2CC3C[C@H]1C[C@](F)(C3)C2)c1cccc(CCC(=O)O)c1
Output: < 1 µM
